test system: NCI-H1703; experiment: cells; format: functional, cell-based; settings: Homo sapiens;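 also: growth inhibition of NCI-H1703 cells, read out via a cell viability assay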
Description: SANGER: Inhibition of human NCI-H1703 cell growth in a cell viability assay.
pIC50: −log10 of the molar value.
pIC50 values for the molecules below.

Before answering, review these 2 worked examples.
[
  {
    "mol": "CN(NC(=O)CC(=O)NN(C)C(=S)c1ccccc1)C(=S)c1ccccc1",
    "endpoint-label": "pIC50",
    "test-value": 8.43
  },
  {
    "mol": "NC(=O)c1ccc(N(C(N)=O)c2c(F)cccc2F)nc1-c1ccc(F)cc1F",
    "endpoint-label": "pIC50",
    "test-value": "< 5.70"
  }
]

Exercise: Report value only: pIC50, NCI-H1703, COc1ccc(-c2cc3nccn3c(Nc3ncccc3C(N)=O)n2)cc1OC
Solution: < 5.10

* * *

test system: CA46; assay: cells; type: functional, cell-based, Homo sapiens; conditions: Homo sapiens, CA46;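 also: growth inhibition of human CA46 cells, read out by a cell viability assay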
Description: SANGER: Inhibition of human CA46 cell growth in a cell viability assay.
Where a SMILES comes first, the peptide text is derived from it. The star is where a group is joined. Cbz = O=C(OCc1ccccc1)*
IC50 values for the compounds below.

[
  {
    "compound": "C[C@@H](Oc1cc(-c2cnn(C3CCNCC3)c2)cnc1N)c1c(Cl)ccc(F)c1Cl",
    "system-name": "CA46",
    "IC50": "> 2 µM"
  },
  {
    "compound": "COc1ccc(N(C(=O)Oc2c(C)cccc2C)c2ccnc(Nc3ccc(N4CCN(C)CC4)cc3)n2)c(OC)c1",
    "system-name": "CA46",
    "IC50": "> 5.12 µM"
  },
  {
    "compound": "COc1cc(N2CCC(N3CCN(C)CC3)CC2)ccc1Nc1ncc(Cl)c(Nc2ccccc2S(=O)(=O)C(C)C)n1",
    "system-name": "CA46",
    "IC50": "> 2 µM"
  },
  {
    "compound": "CC(C)C[C@@H](C=O)NC(=O)[C@H](CC(C)C)NC(=O)[C@H](CC(C)C)NC(=O)OCc1ccccc1 [MG-132] (Cbz-Leu-Leu-Leu-aldehyde)",
    "system-name": "CA46",
    "IC50": "> 1 µM"
  }
]

Okay, now this compound:
Exercise: Return the recorded IC50 value; entry: Nc1ccccc1NC(=O)c1ccc(CNC(=O)OCc2cccnc2)cc1
Solution: > 5 µM

* * *

test system: KLE; test: cells; format: functional, cell-based; conditions: Homo sapiens;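 also: growth inhibition of human KLE cells, read out with a cell viability assay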
Description: SANGER: Inhibition of human KLE cell growth in a cell viability assay.
pIC50: −log10 of the molar value.
endpoint-label: pIC50

[
  {
    "compound": "C=CC(=O)N1CCCC(Nc2nc(Nc3ccc(N(C)C(=O)CC)cc3)nc3[nH]cnc23)C1 (stereo not given)",
    "pIC50": "< 4.99"
  },
  {
    "compound": "CCCCCCCCCCCC1=C(O)C(=O)C=C(O)C1=O [EMBELIN]",
    "pIC50": 4.62
  },
  {
    "compound": "CC1(C)CCC(c2ccc(Cl)cc2)=C(CN2CCN(c3ccc(C(=O)NS(=O)(=O)c4ccc(N[C@H](CCN5CCOCC5)CSc5ccccc5)c(S(=O)(=O)C(F)(F)F)c4)cc3)CC2)C1 [NAVITOCLAX]",
    "pIC50": "< 5.70"
  },
  {
    "compound": "CS(=O)(=O)N1CCN(Cc2cc3nc(-c4cccc5[nH]ncc45)nc(N4CCOCC4)c3s2)CC1 [PICTILISIB]",
    "pIC50": "< 5.40"
  }
]

Okay, now this compound:
Exercise: Report value only: pIC50, KLE, NC(=O)c1ccc(N(C(N)=O)c2c(F)cccc2F)nc1-c1ccc(F)cc1F [VX-702]
Solution: < 5.70

Cited source: ChEMBL document CHEMBL1201861
